Assay Details: total protein half-life in vivo (active degradation + dilution); higher = more stable protein
Assay Conditions: wild type E. coli NCM3722; growth: N-lim chemostat; doubling time 6 h
Assay Readout: total protein half-life in vivo
# output: number + unit

Consider the following illustrative entries.
# Sequence Data, total protein half-life in vivo
records = [
    ("MAHRPRWTLSQVTELFEKPLLDLLFEAQQVHRQHFDPRQVQVSTLLSIKTGACPEDCKYCPQSSRYKTGLEAERLMEVEQVLESARKAKAAGSTRFCMGAAWKNPHERDMPYLEQMVQGVKAMGLEACMTLGTLSESQAQRLANAGLDYYNHNLDTSPEFYGNIITTRTYQERLDTLEKVRDAGIKVCSGGIVGLGETVKDRAGLLLQLANLPTPPESVPINMLVKVKGTPLADNDDVDAFDFIRTIAVARIMMPTSYVRLSAGREQMNEQTQAMCFMAGANSIFYGCKLLTTPNPEEDKDLQLFRKLGLNPQQTAVLAGDNEQQQRLEQALMTPDTDEYYNAAAL", "0.897 h"),
    ("MTLDLPRRFPWPTLLSVCIHGAVVAGLLYTSVHQVIELPAPAQPISVTMVTPADLEPPQAVQPPPEPVVEPEPEPEPIPEPPKEAPVVIEKPKPKPKPKPKPVKKVQEQPKRDVKPVESRPASPFENTAPARLTSSTATAATSKPVTSVASGPRALSRNQPQYPARAQALRIEGQVKVKFDVTPDGRVDNVQILSAKPANMFEREVKNAMRRWRYEPGKPGSGIVVNILFKINGTTEIQ", "2.33 h"),
]

Now look at this one.
Dear colleague, I am looking for the recorded total protein half-life in vivo of the following sequence: MLYIFDLGNVIVDIDFNRVLGAWSDLTRIPLASLKKSFHMGEAFHQHERGEISDEAFAEALCHEMALPLSYEQFSHGWQAVFVALRPEVIAIMHKLREQGHRVVVLSNTNRLHTTFWPEEYPEIRDAADHIYLSQDLGMRKPEARIYQHVLQAEGFSPSDTVFFDDNADNIEGANQLGITSILVKDKTTIPDYFAKVLC [P0A8Y3]
4.14 h
